Assay: qHTS assay for small molecule antagonists of retinoid X receptor alpha signaling (AID 588546);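 note: cells stimulated with 9-cis-retinoic acid as agonist; % is set by controls: 0 for no effect and ±100 for the full control effect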
Conditions: HEK293T RXRa-UAS-bla, beta-lactamase ratio, antagonist mode; measured here: W530 green channel, cytotoxicity proxy
Inconclusive results are not listed.
Below is a list of entries, each paired with its recorded max response value.

recordSmiles	max response (%)
CCCCCCCC/C=C\CCCCCCCCN	0.483
CCCCCCCCOc1ccc(C(=O)c2ccccc2)c(O)c1	-13.7
CCOc1ccccc1C(N)=O	-1.33
O=C(O)c1ccc(S(=O)(=O)N(Cl)Cl)cc1	-4.72
CCCCCCCCCCCCCCCC(=O)O	-11.4
CCCCOC(=O)CC(CC(=O)OCCCC)(OC(C)=O)C(=O)OCCCC	-7.31

* * *

Target: Cytochrome P450 2D6 (Homo sapiens)
Assay: Cytochrome P450 family 2 subfamily D member 6 (CYP2D6) small molecule antagonists: luciferase biochemical (cell-free) qHTS assay (AID 1645840); note: nearly all actives have a fitted effect of over 55% in size
Settings: P450-Glo CYP2D6 enzyme, luciferin luminescence, 1 h; series mostly up to 57.4 µM
Records with an inconclusive call do not appear. Active and inactive are the calls of the source. Calls come from the whole dose curve; as a rule, active = well fitted inhibition curve with a large enough effect in the repeat runs; inconclusive = weak or mixed curves; inactive = flat fitted curve, though single readings scatter.
Labels: Y = active, N = inactive

recordSmiles	label
CCN(CC)CCNC(=O)c1cc(Br)c(N)cc1OC	Y
NS(=O)(=O)c1cc(C(=O)O)cc(N2CCCC2)c1Oc1ccccc1	N
Nc1ccc(C(=O)NCC(=O)O)cc1	N
CCN(CC)CCOc1ccccc1C(=O)CCc1ccccc1	Y
Nc1ccc(S(=O)(=O)NCc2ccccc2)cc1	N
CC(=O)Nc1ccc(S(=O)(=O)Nc2ccc([N+](=O)[O-])cc2)cc1	N
OC[C@H]1O[C@@H]2O[C@H]3[C@H](O)[C@@H](O)[C@@H](O[C@H]4[C@H](O)[C@@H](O)[C@@H](O[C@H]5[C@H](O)[C@@H](O)[C@@H](O[C@H]6[C@H](O)[C@@H](O)[C@@H](O[C@H]7[C@H](O)[C@@H](O)[C@@H](O[C@H]8[C@H](O)[C@@H](O)[C@@H](O[C@H]1[C@H](O)[C@H]2O)O[C@@H]8CO)O[C@@H]7CO)O[C@@H]6CO)O[C@@H]5CO)O[C@@H]4CO)O[C@@H]3CO	N
O=C(c1ccc(F)cc1)C1CCN(CCn2c(=S)[nH]c3ccccc3c2=O)CC1	Y
C[C@@H](O)[C@H]1C(=O)N2C(C(=O)O)=C([C@H]3CCCO3)S[C@H]12	N
CCOc1ccccc1C(N)=O	N
CN1CCN(C2=Nc3cc(F)ccc3Cc3ccccc32)CC1	Y

* * *

Tested on: CP192
Test: qHTS profiling for inhibitors of Plasmodium falciparum proliferation (AID 504749); note: nearly all actives have a fitted effect of over 60% in size
Details: P. falciparum in erythrocytes, SYBR Green DNA, 72 h; series mostly up to 28.7 µM
Results filed as inconclusive are left out. The source made the active and inactive calls. Calls follow the shape of the dose curve; as a rule, active = well fitted inhibition curve with a large enough effect; inconclusive = small, poorly fitted or top-dose-only effect; inactive = flat fitted curve, though single readings scatter.
Labels: active, inactive

compound	label
Oc1ccccc1C=NCc1ccccc1	inactive
CCCCCCCCNC(C)C(O)c1ccc(SC(C)C)cc1 (configuration not stated)	active
Cc1ccc(-c2ncc(Cl)cc2-c2ccc(S(C)(=O)=O)cc2)cn1	inactive
CC(C)(C)CC(C)(C)c1ccc(O)c(-n2nc3ccccc3n2)c1	inactive
CCN1/C(=C/C=C/c2sc3ccccc3[n+]2CC)Sc2ccccc21	active
CCCCN=C(N)N=C(N)N	inactive
c1ccc(CC2=NCCN2)cc1	inactive
CN(Cc1ccc(C(C)(C)C)cc1)Cc1cccc2ccccc12	inactive
CC(=O)OC[C@H]1O[C@@H](n2ncc(=O)[nH]c2=O)[C@H](OC(C)=O)[C@@H]1OC(C)=O	inactive
CN1CCN(C2=Nc3cc(F)ccc3Cc3ccccc32)CC1	inactive
COc1ccc(/C=N/NC(=O)c2ccncc2)cc1OC	inactive
Cc1ccc(S(=O)(=O)NC(=O)NC2CCCC2)cc1	inactive
